Kindly state inhibition for each of the entries shown.
# System: Tyrosine-protein kinase ABL1 (Homo sapiens), P00519 [H396P]
# DETAILS: at 1 µM
All answers are understood in %, so give the number only.

Ask: Specify reported inhibition for the compound shown: "COc1cc2ncn(-c3cc(O[C@H](C)c4ccccc4Cl)c(C(N)=O)s3)c2cc1OC"
Result: 49.4

Ask: Specify reported inhibition for the compound shown: "O=C1NC(=O)C(c2ccccc2Cl)=C1Nc1cccc(O)c1"
Result: 1.17

Ask: Specify reported inhibition for the compound shown: COc1ccc2cc(-c3c(-c4ccncc4)nc(-c4ccc([S+](C)[O-])cc4)n3C)ccc2c1 (stereo unspecified)
Result: 3.52

Ask: Specify reported inhibition for the compound shown: "CCn1c(-c2nonc2N)nc2c(C#CC(C)(C)O)nc(CN3CCCC3)cc21"
Result: 0.68

Ask: Specify reported inhibition for the compound shown: "CN1CCC(C(=O)Nc2n[nH]c3nnc(-c4ccccc4)cc23)CC1"
Result: 4.8

Ask: Specify reported inhibition for the compound shown: "CCN1CCC(CC(=O)Nc2n[nH]c3nc(-c4cccs4)c(Br)cc23)CC1"
Result: 8.03

Ask: Specify reported inhibition for the compound shown: "Cc1cc(O)cc(C)c1/C=C/c1cncc(-c2nn[nH]n2)c1"
Result: 79.8

Ask: Specify reported inhibition for the compound shown: "Cc1cccc(-c2n[nH]cc2-c2ccc3ncccc3n2)n1"
Result: 35.5

Ask: Specify reported inhibition for the compound shown: "COc1cccc(-n2ncc3c(N/N=C/c4cccc(F)c4)ncnc32)c1"
Result: 87.6

Ask: Specify reported inhibition for the compound shown: "NC(=O)c1ccc(-c2nc(-c3ccccn3)c(-c3ccc4c(c3)OCO4)[nH]2)cc1"
Result: 6.63

Ask: Specify reported inhibition for the compound shown: "COc1cc(C)c(NC(=O)CN(C)C)cc1Nc1nc(Nc2cccc(F)c2C(N)=O)c2cc[nH]c2n1"
Result: -1.28

Ask: Specify reported inhibition for the compound shown: "NS(=O)(=O)c1cccc(-c2ccc3c(NC(=O)C4CC4)n[nH]c3c2)c1"
Result: 21.7

Ask: Specify reported inhibition for the compound shown: "[O-][S+]1CCN(Cc2ccc(-c3ccc4ncnc(Nc5ccc(OCc6ccccc6)c(F)c5)c4c3)o2)CC1"
Result: 0.51

Ask: Specify reported inhibition for the compound shown: "CC(=O)Nc1cccc(C#Cc2cncnc2Nc2ccc(OCc3cccc(F)c3)c(Cl)c2)n1"
Result: 1.6

Ask: Specify reported inhibition for the compound shown: "CCn1c(-c2nonc2N)nc2cncc(C(=O)N3CC[C@H](N)C3)c21"
Result: 2.94

Ask: Specify reported inhibition for the compound shown: "Fc1cccc(COc2ccc(Nc3ncnc4cc(-c5ccc[nH]5)sc34)cc2Cl)c1"
Result: 5.8

Ask: Specify reported inhibition for the compound shown: "COc1cc2ncn(-c3cc(OCc4ccccc4Cl)c(C(N)=O)s3)c2cc1OC"
Result: 31.1

Ask: Specify reported inhibition for the compound shown: "COc1ccc(COc2ccc(Cc3cnc(N)nc3N)cc2OC)cc1"
Result: -1.33

Ask: Specify reported inhibition for the compound shown: "CC(C)=Cc1cccc2c1/C(=N/Nc1ccc(S(N)(=O)=O)cc1)C(=O)N2"
Result: 13.8

Ask: Specify reported inhibition for the compound shown: "Nc1nc(-c2ccc3c(c2)C(=Cc2cc(Br)c(O)c(Br)c2)C(=O)N3)cs1"
Result: 4.36

Ask: Specify reported inhibition for the compound shown: "COc1ccc(-c2ccncc2)cc1C(N)=O"
Result: 3.48

Ask: Specify reported inhibition for the compound shown: "COc1cc2c(cc1Nc1nc(N3CCc4ccccc43)c3cc[nH]c3n1)N(C(=O)CN(C)C)CC2"
Result: -0.96

Ask: Specify reported inhibition for the compound shown: "Cc1ccc(NC(=O)c2ccnc(N3CCCC3)c2)cc1-c1ccc(C(=O)NCC2CC2)cc1"
Result: 2.43

Ask: Specify reported inhibition for the compound shown: "O=C(Nc1n[nH]c2nc(-c3ccco3)c(Br)cc12)C1CC1"
Result: 26.4

Ask: Specify reported inhibition for the compound shown: "O=C1NC(=O)C(c2ccc(Cl)cc2)=C1Nc1ccc(Cl)c(C(=O)O)c1"
Result: 1.82

Ask: Specify reported inhibition for the compound shown: "c1cnn2ncc(-c3ccnc(Nc4ccc5c(c4)OCCO5)n3)c2c1"
Result: 34.4

Ask: Specify reported inhibition for the compound shown: "CS(=O)(=O)CCNCc1ccc(-c2ccc3ncnc(Nc4ccc(OCc5cccc(F)c5)c(C(F)(F)F)c4)c3c2)o1"
Result: 3.75

Ask: Specify reported inhibition for the compound shown: CC1=C(C(=O)Nc2ccc3[nH]ncc3c2)C(c2ccc3ccccc3c2)CC(=O)N1 (stereo unspecified)
Result: 12.3

Ask: Specify reported inhibition for the compound shown: "CCn1c(-c2nonc2N)nc2c(N3CCCC3)nccc21"
Result: -1.53

Ask: Specify reported inhibition for the compound shown: "CS(=O)(=O)CCN(CC#N)Cc1ccc(-c2ccc3ncnc(Nc4ccc(OCc5cccc(F)c5)c(Cl)c4)c3c2)o1"
Result: 1.89

Ask: Specify reported inhibition for the compound shown: "Nc1nc(-c2ccccn2)c(-c2ccc3ncccc3n2)s1"
Result: 4.78
